Source: the Immune Epitope Database (IEDB)

# Target Or System: HLA-B*07:02
# Procedure Summary: IEDB peptide-MHC binding, purified MHC/competitive/radioactivity; filed as Kd, often an IC50 or EC50 that approximates it; bounds were set here for any values at or beyond the usual limits of such assays
# Conditions Used: source organism: Mammarenavirus juninense

# Sequence Code, Kd / µM
records = [
    ("MAVELFQTI", 7.28),
]

###

# Target Or System: HLA-B*58:01
# Procedure Summary: IEDB peptide-MHC binding, purified MHC/direct/fluorescence; filed as Kd, often an IC50 or EC50 that approximates it; bounds were set here for any values at or beyond the usual limits of such assays
# Conditions Used: source organism: Influenza A virus (A/egret/Hong Kong/757.3/2002(H5N1))
pKd: −log10 of the molar value.

# Sequence Code, pKd
rows = [
    ("EEFTMVGRR", "≤ 4.70"),
]

###

# Target Or System: HLA-A*02:11
# Procedure Summary: IEDB peptide-MHC binding, purified MHC/competitive/fluorescence; filed as Kd, often an IC50 or EC50 that approximates it; bounds were set here for any values at or beyond the usual limits of such assays
# Conditions Used: source organism: Brucella suis 1330
pKd: −log10 of the molar value.
Reported Property: pKd

# Sequence Code, Target Or System, Assay Value
records = [
    ("TEWPQLKVA", "HLA-A*02:11", "≤ 4.70"),
]

###

# Target Or System: HLA-B*07:02
# Procedure Summary: IEDB peptide-MHC binding, purified MHC/competitive/radioactivity; filed as Kd, often an IC50 or EC50 that approximates it; bounds were set here for any values at or beyond the usual limits of such assays
# Conditions Used: source organism: SARS coronavirus Tor2

# Sequence Code, Kd (nM)
measured = [
    ("VPYNMRVIHF", 149),
    ("LPFHRWHTM", 8.4),
    ("CPAVAVHDF", 1640),
    ("MPYVFTLLF", 109),
    ("LPIDKCSRII", 1400),
]

###

# Target Or System: HLA-B*46:01
# Procedure Summary: IEDB peptide-MHC binding, purified MHC/direct/fluorescence; filed as Kd, often an IC50 or EC50 that approximates it; bounds were set here for any values at or beyond the usual limits of such assays
# Conditions Used: source organism: Influenza A virus (A/New Caledonia/20/1999(H1N1))
Reported Property: Kd (nM)

# Sequence Code, Reported Property, Unit Info, Assay Value
data = [
    ("WMACHSAAF", "Kd", "nM", 756),
]

###

# Target Or System: HLA-A*02:16
# Procedure Summary: IEDB peptide-MHC binding, purified MHC/direct/fluorescence; filed as Kd, often an IC50 or EC50 that approximates it; bounds were set here for any values at or beyond the usual limits of such assays
# Conditions Used: source organism: Salmonella enterica subsp. enterica serovar Typhimurium str. LT2

# Sequence Code, Kd
rows = [
    ("WTLETLPRV", "≤ 1 nM"),
]

###

# Target Or System: HLA-A*11:01
# Procedure Summary: IEDB peptide-MHC binding, purified MHC/direct/fluorescence; filed as Kd, often an IC50 or EC50 that approximates it; bounds were set here for any values at or beyond the usual limits of such assays
# Conditions Used: source organism: Giardia lamblia ATCC 50803
pKd: −log10 of the molar value.
Reported Property: pKd

# Sequence Code, Target Or System, Assay Value
measured = [
    ("VAAKGAPAL", "HLA-A*11:01", "≤ 4.70"),
]
